- Test system: CH1/PA-1 cells
- measurement_notes: Cell cycle distribution (PI staining, flow cytometry)
- Type: cell-based, human
- condition: CH1/PA-1, 24 h, 150 µM
Parameter Cells in G1/G0 phase: see the listing below.
Return type: number; implicit unit %.

CC1=C([O-])C([O-])(n2cccn2)c2ccccc2C1=O.Cc1ccccc1.[Ru+2] (racemic): 23.1
CC1=C([O-])C([O-])(n2cccn2)c2ccccc2C1=O.Cc1ccc(C(C)C)cc1.[Ru+2] (racemic): 20.0
CC1=C(O)C(=O)c2ccccc2C1=O [L, 2-Hydroxy-3-methyl-1,4-naphthoquinone]: 40.8

QUERY: What measured Cells in G1/G0 phase is associated with CC1=C([O-])C([O-])(n2cccn2)c2ccccc2C1=O.[Ru+2].c1ccccc1 (racemic) on CH1/PA-1 cells?
RESULT: 30.8

###

- System: SW480 cells
- measurement_notes: Apoptosis assay (annexin V-FITC/PI, flow cytometry)
- condition: SW480, 24 h, 0.1 µM, mean ± SD
Parameter late apoptotic cells: see the listing below.
Return type: number; implicit unit %.

CC1=C([O-])C([O-])(n2cccn2)c2ccccc2C1=O.Cc1c(C)c(C)c(C)c(C)c1C.[Ru+2] (stereo not shown) [Compound 6]: 4.7
CC1=C([O-])C([O-])(n2cccn2)c2ccccc2C1=O.[Ru+2].c1ccc(-c2ccccc2)cc1 (racemic) [Compound 5]: 2.9
CC1=C([O-])C([O-])(n2cccn2)c2ccccc2C1=O.[Ru+2].c1ccc2c(c1)CCC2 (racemic) [Compound 4]: 2.1

QUERY: What measured late apoptotic cells is associated with CC1=C([O-])C([O-])(n2cccn2)c2ccccc2C1=O.Cc1ccc(C(C)C)cc1.[Ru+2] (racemic) [Compound 1] on SW480 cells?
RESULT: 3.6

###

- Test system: SW480 cells
- measurement_notes: Apoptosis assay (annexin V-FITC/PI, flow cytometry)
- condition: SW480, 24 h, 10 µM, mean ± SD
Please use satisfied whenever early apoptotic cells is not below 1%, and not satisfied whenever it is.

As a guide, the following entries are already answered.
CC1=C([O-])C([O-])(n2cccn2)c2ccccc2C1=O.[Ru+2].c1ccc(-c2ccccc2)cc1 (racemic): satisfied
CC1=C([O-])C([O-])(n2cccn2)c2ccccc2C1=O.Cc1ccccc1.[Ru+2] (racemic): not satisfied
CC1=C([O-])C([O-])(n2cccn2)c2ccccc2C1=O.Cc1ccc(C(C)C)cc1.[Ru+2] (racemic): satisfied

QUERY: Evaluate CC1=C([O-])C([O-])(n2cccn2)c2ccccc2C1=O.Cc1c(C)c(C)c(C)c(C)c1C.[Ru+2] (stereo not shown) : early apoptotic cells at minimum 1%?
RESULT: satisfied

###

- Test system: SW480 cells
- measurement_notes: Apoptosis assay (annexin V-FITC/PI, flow cytometry)
- condition: SW480, 24 h, 10 µM, mean ± SD
Parameter early apoptotic cells: see the listing below.
Return type: number; implicit unit %.

Before answering, review these 2 worked examples.
CC1=C([O-])C([O-])(n2cccn2)c2ccccc2C1=O.[Ru+2].c1ccc2c(c1)CCC2 (racemic): 1.0
CC1=C(O)C(=O)c2ccccc2C1=O [L, 2-Hydroxy-3-methyl-1,4-naphthoquinone]: 1.0

Please look at the following compound next.
QUERY: Fill blank: measured early apoptotic cells of the compound CC1=C([O-])C([O-])(n2cccn2)c2ccccc2C1=O.[Ru+2].c1ccccc1 (racemic) is ____.
RESULT: 1.0
